- TARGET UNDER TEST: Runt-related transcription factor 1 (Homo sapiens) + Core-binding factor subunit beta (Homo sapiens) (UniProt Q01196+Q13951)
- Sequence (Q01196 whole entry, looked up): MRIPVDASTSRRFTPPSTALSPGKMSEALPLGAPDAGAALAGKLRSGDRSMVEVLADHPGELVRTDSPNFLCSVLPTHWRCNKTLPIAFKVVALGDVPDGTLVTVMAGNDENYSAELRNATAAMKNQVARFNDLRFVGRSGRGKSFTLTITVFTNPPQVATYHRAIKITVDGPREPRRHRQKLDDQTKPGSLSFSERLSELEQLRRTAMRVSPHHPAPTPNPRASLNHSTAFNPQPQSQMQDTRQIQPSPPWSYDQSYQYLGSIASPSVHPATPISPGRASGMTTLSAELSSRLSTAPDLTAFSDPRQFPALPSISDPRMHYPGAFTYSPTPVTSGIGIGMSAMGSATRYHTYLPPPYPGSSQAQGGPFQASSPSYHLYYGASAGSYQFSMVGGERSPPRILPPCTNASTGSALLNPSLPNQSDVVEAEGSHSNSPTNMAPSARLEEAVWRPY
- Sequence (Q13951 whole entry, looked up): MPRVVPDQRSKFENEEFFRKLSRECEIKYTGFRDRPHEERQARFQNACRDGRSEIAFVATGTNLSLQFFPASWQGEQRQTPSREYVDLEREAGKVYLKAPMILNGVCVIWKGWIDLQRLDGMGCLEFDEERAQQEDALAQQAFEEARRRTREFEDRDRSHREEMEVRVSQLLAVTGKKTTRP
- EXPERIMENT DESCRIPTION: inhibitors of RUNX1 Runt–CBFb binding, primary screen, biochemical, FRET, Cerulean-Runt, Venus-CBFb, uHTS (AID 1496)
- EXPERIMENTAL SETUP: Cerulean-Runt/Venus-CBFb FRET ratio 530/480, 1 h; at 20 µM
The whole screen tested about 220,000 compounds, of which about 990 (0.45%) were called active.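 How the source made its calls: active means inhibition over about 50% at 20 µM in the single-dose screen (limit read from the data); inactive means the rest.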 The sample as a whole holds a higher share of actives than the screen did.
Outcomes: active, inactive

>  <COMPOUND>
Cc1cc(C)c2c3c(sc2n1)C(c1ccccc1)C(C#N)=C(N)O3 (stereo not given)

>  <DISCRETE LABEL>
active

$$$$
>  <COMPOUND>
N=c1oc2ccccc2cc1C(=O)N/N=C/c1ccccc1

>  <DISCRETE LABEL>
inactive

$$$$
>  <COMPOUND>
O=C(CNCc1cccs1)Nc1cc(S(=O)(=O)N2CCCC2)ccc1Cl

>  <DISCRETE LABEL>
inactive

$$$$
>  <COMPOUND>
COc1ccc2c(CN3CCN(S(=O)(=O)c4cccs4)CC3)cc(=O)oc2c1

>  <DISCRETE LABEL>
inactive

$$$$
>  <COMPOUND>
CCN1C(=O)/C(=C\N2CCN(c3ccccc3)CC2)SC1=S

>  <DISCRETE LABEL>
inactive

$$$$
>  <COMPOUND>
COC(=O)c1ccc(COc2cc([N+](=O)[O-])cc3cccnc23)cc1

>  <DISCRETE LABEL>
inactive

$$$$
>  <COMPOUND>
CSc1nc(-c2ccco2)nn1C(=O)c1ccccc1Cl

>  <DISCRETE LABEL>
inactive

$$$$
>  <COMPOUND>
CCN(CC)CCCN=C(N)N

>  <DISCRETE LABEL>
inactive

$$$$
>  <COMPOUND>
C#CCOCCOCCOCCNc1nc(N2CCN(C(=O)[C@H](CCC(=O)O)n3cc(C(N)CO)nn3)CC2)nc(N2CCN(C(=O)[C@H](CCCCN)n3cc(C(N)[C@H](C)CC)nn3)CC2)n1 (stereo not given in full)

>  <DISCRETE LABEL>
inactive

$$$$
>  <COMPOUND>
CC(C)=C(NC(=O)c1ccco1)C(=O)NCCc1nc2ccccc2[nH]1

>  <DISCRETE LABEL>
inactive

$$$$
>  <COMPOUND>
Fc1ccc(COc2ccc(-c3nnco3)cc2)cc1

>  <DISCRETE LABEL>
inactive

$$$$
>  <COMPOUND>
CN1CCN(Cc2c(O)ccc3c2oc(=O)c2ccccc23)CC1

>  <DISCRETE LABEL>
inactive

$$$$
>  <COMPOUND>
CC(C)C[C@H](CO)Nc1nc(N(C)c2cccc(Cl)c2)c2ncn(C(C)C)c2n1

>  <DISCRETE LABEL>
inactive

$$$$
>  <COMPOUND>
COc1cccc(C(=O)c2cc3ccc(O)cc3oc2=O)c1

>  <DISCRETE LABEL>
active

$$$$
>  <COMPOUND>
Cc1cc(C)c(C#N)c(SCc2[nH]nc3c2C(c2ccccc2)C(C#N)=C(N)O3)n1 (stereo not given)

>  <DISCRETE LABEL>
inactive

$$$$
